Cited source: ChEMBL document CHEMBL1799977

- method notes: Drug level in rat plasma at 5 mg/kg, po measured 90 mins post dose
- Format: ADME, organism-based
- Design: dose 5 mg/kg, route oral
experimental readout: concentration at 1.5 h (µM)
Please reply with the bare figure in µM and do not write the unit itself.

// query Which concentration at 1.5 h value is on record for O=C(NC1CC1)c1cn(-c2cccc(-c3ccc([C@@H]4C[C@H]4C(=O)[O-])c(F)c3)c2)c2ncccc2c1=O.[Na+] ?
// result 8.19

----------
Documented IC50 across a set of compounds
- target of assay: Phosphodiesterase 4 (Homo sapiens, UniProt P27815+Q08499+Q07343+Q08493)
- method notes: Inhibition of PDE4 activity in human whole blood assessed as inhibition of LPS-induced TNF-alpha release
Please reply with the bare figure in nM and do not write the unit itself.

Answered examples (5):
# compound, IC50 / nM
data = [
    ("O=C(NC1CC1)c1cn(-c2cccc(-c3ccc(C4CC4C(=O)O)cc3)c2)c2ncccc2c1=O (racemic)", 300),
    ("O=C(NC1CC1)c1cn(-c2cccc(-c3ccccc3C3CC3C(=O)O)c2)c2ncccc2c1=O (racemic)", 1300),
    ("O=C(NCC(F)(F)F)c1cn(-c2cccc(-c3ccc(C4CC4C(=O)O)cc3)c2)c2ncccc2c1=O (racemic)", 510),
    ("O=C(NC1CC1)c1cn(-c2cccc(-c3ccc(C4CC4C(=O)O)cc3)c2)c2ncccc2c1=O (cis isomer)", 160),
    ("CC(C)(c1cc(-c2cccc(-c3ccc(C4CC4C(=O)O)cc3)c2)c2ncccc2c1)S(C)(=O)=O (single isomer, unassigned; enantiomer B)", 600),
]

Now for the compound whose IC50 we want.
// query What reported IC50 corresponds to CC1(NC(=O)c2cn(-c3cccc(-c4ccc(C5CC5C(=O)O)cc4)c3)c3ncccc3c2=O)CC1 (racemic) on Phosphodiesterase 4 (Homo sapiens, UniProt P27815+Q08499+Q07343+Q08493)?
// result 280

----------
- method notes: Drug level in rat plasma at 1 mg/kg, po measured 90 mins post dose
- Format: ADME, organism-based
- Set-up: dose 1 mg/kg, route oral
experimental readout: concentration at 1.5 h (µM)
Please reply with the bare figure in µM and do not write the unit itself.

// query Which concentration at 1.5 h value is on record for O=C(NC1CC1)c1cn(-c2cccc(-c3ccc([C@@H]4C[C@H]4C(=O)[O-])c(F)c3)c2)c2ncccc2c1=O.[Na+] ?
// result 3.41

----------
- method notes: Drug level in rat brain at 1 mg/kg, po measured 90 mins post dose
- Assay type: ADME, organism-based
- Parameters: dose 1 mg/kg, route oral
- experimental conditions: read-out: Drug uptake
experimental readout: concentration at 1.5 h (µM)
Please reply with the bare figure in µM and do not write the unit itself.

// query Which concentration at 1.5 h value is on record for O=C(NC1CC1)c1cn(-c2cccc(-c3ccc([C@@H]4C[C@H]4C(=O)[O-])c(F)c3)c2)c2ncccc2c1=O.[Na+] ?
// result 0.11

----------
- target of assay: Cytochrome P450 2C9 (Homo sapiens, UniProt P11712)
- Sequence (P11712 whole entry): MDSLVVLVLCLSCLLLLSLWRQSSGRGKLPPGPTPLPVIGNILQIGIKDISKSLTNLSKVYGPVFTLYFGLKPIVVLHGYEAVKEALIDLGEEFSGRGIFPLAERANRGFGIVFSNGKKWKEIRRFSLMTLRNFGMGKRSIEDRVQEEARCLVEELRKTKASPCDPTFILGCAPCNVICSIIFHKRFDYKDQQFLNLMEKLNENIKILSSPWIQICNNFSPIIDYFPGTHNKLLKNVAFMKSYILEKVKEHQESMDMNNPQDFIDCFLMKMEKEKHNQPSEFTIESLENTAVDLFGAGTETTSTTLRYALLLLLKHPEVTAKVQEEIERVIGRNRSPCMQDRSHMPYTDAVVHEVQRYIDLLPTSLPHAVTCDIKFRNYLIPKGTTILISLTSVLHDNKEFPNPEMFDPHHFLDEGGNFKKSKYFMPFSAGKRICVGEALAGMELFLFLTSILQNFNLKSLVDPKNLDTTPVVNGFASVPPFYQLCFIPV
- method notes: Inhibition of human CYP2C9
- Format: ADME
experimental readout: IC50

// query Which IC50 value is on record for O=C(NC1CC1)c1cn(-c2cccc(-c3ccc([C@@H]4C[C@H]4C(=O)O)c(F)c3)c2)c2ncccc2c1=O ?
// result > 100 µM

----------
- method notes: Drug level in rat brain at 0.5 mg/kg, po measured 90 mins post dose
- Assay type: ADME, organism-based
- Set-up: dose 0.5 mg/kg, route oral
- experimental conditions: read-out: Drug uptake
experimental readout: concentration at 1.5 h
Report field: quantity (unit follows the number).

// query Which concentration at 1.5 h value is on record for O=C(NC1CC1)c1cn(-c2cccc(-c3ccc([C@@H]4C[C@H]4C(=O)[O-])c(F)c3)c2)c2ncccc2c1=O.[Na+] ?
// result 47 nM

----------
- method notes: Drug level in rat brain at 5 mg/kg, po measured 90 mins post dose
- Assay type: ADME, organism-based
- Design: dose 5 mg/kg, route oral
- experimental conditions: read-out: Drug uptake
experimental readout: concentration at 1.5 h (nM)
Please reply with the bare figure in nM and do not write the unit itself.

// query Which concentration at 1.5 h value is on record for O=C(NC1CC1)c1cn(-c2cccc(-c3ccc([C@@H]4C[C@H]4C(=O)[O-])c(F)c3)c2)c2ncccc2c1=O.[Na+] ?
// result 290

----------
Documented half-life across a set of compounds
- method notes: Half life in Sprague-Dawley rat at 10 mg/kg, po and 5 mg/kg, iv
- Assay type: ADME, organism-based
- experimental conditions: Sprague-Dawley, in vivo
Please reply with the bare figure in h and do not write the unit itself.

Answered examples (3):
# compound, half-life (h)
data = [
    ("O=C(NCC(F)(F)F)c1cn(-c2cccc(-c3ccc(C4CC4C(=O)O)cc3)c2)c2ncccc2c1=O (racemic)", 3.2),
    ("CC1(NC(=O)c2cn(-c3cccc(-c4ccc(C5CC5C(=O)O)cc4)c3)c3ncccc3c2=O)CC1 (racemic)", 4.1),
    ("O=C(NC1CC1)c1cn(-c2cccc(-c3cccc(C4CC4C(=O)O)c3)c2)c2ncccc2c1=O (racemic)", 1),
]

Now for the compound whose half-life we want.
// query Which half-life value is on record for O=C(NC1CCC1)c1cn(-c2cccc(-c3ccc(C4CC4C(=O)O)cc3)c2)c2ncccc2c1=O (racemic) ?
// result 2.4

----------
- method notes: Oral bioavailability in rat at 10 mg/kg
- Type: ADME, organism-based
- experimental conditions: in vivo
experimental readout: bioavailability (%)
Please reply with the bare figure in % and do not write the unit itself.

// query Which bioavailability value is on record for O=C(NC1CC1)c1cn(-c2cccc(-c3ccc([C@@H]4C[C@H]4C(=O)O)c(F)c3)c2)c2ncccc2c1=O ?
// result 38

----------
- method notes: Clearance in rhesus monkey at 10 mg/kg, po or 1 mg/kg, iv
- Format: ADME, organism-based, Macaca mulatta
- experimental conditions: in vivo
experimental readout: clearance (mL/min/kg)
Please reply with the bare figure in mL/min/kg and do not write the unit itself.

// query Which clearance value is on record for O=C(NC1CC1)c1cn(-c2cccc(-c3ccc([C@@H]4C[C@H]4C(=O)O)c(F)c3)c2)c2ncccc2c1=O ?
// result 1.3

----------
- method notes: Clearance in squirrel monkey at 10 mg/kg, po or 1 mg/kg, iv
- Assay type: ADME, organism-based
- experimental conditions: saimiri, in vivo
experimental readout: clearance
Report field: quantity (unit follows the number).

// query Which clearance value is on record for O=C(NC1CC1)c1cn(-c2cccc(-c3ccc([C@@H]4C[C@H]4C(=O)O)c(F)c3)c2)c2ncccc2c1=O ?
// result 1.7 mL/min/kg

----------
- method notes: Oral bioavailability in squirrel monkey at 10 mg/kg
- Type: ADME, organism-based
- experimental conditions: saimiri, in vivo
experimental readout: bioavailability (%)
Please reply with the bare figure in % and do not write the unit itself.

// query Which bioavailability value is on record for O=C(NC1CC1)c1cn(-c2cccc(-c3ccc([C@@H]4C[C@H]4C(=O)O)c(F)c3)c2)c2ncccc2c1=O ?
// result 41

----------
- target of assay: Phosphodiesterase 4 (Homo sapiens, UniProt P27815+Q08499+Q07343+Q08493)
- method notes: Inhibition of PDE4 activity in human whole blood assessed as inhibition of LPS-induced TNF-alpha release
experimental readout: IC50 (µM)
Please reply with the bare figure in µM and do not write the unit itself.

Answered examples (3):
# compound, experimental readout, recorded measurement
data = [
    ("O=C(NC1CC1)c1cn(-c2cccc(-c3ccc([C@@H]4C[C@H]4C(=O)O)cc3)c2)c2ncccc2c1=O", "IC50", 1),
    ("O=C(NC1CC1)c1cn(-c2cccc(C#Cc3ccc[n+]([O-])c3)c2)c2ncccc2c1=O", "IC50", 0.19),
    ("CC(C)(Cc1ccc(-c2cccc(-n3cc(C(=O)NC4CC4)c(=O)c4cccnc43)c2)cc1)C(=O)O", "IC50", 0.61),
]

// query Which IC50 value is on record for CC(C)(CC(=O)O)c1ccc(-c2cccc(-n3cc(C(=O)NC4CC4)c(=O)c4cccnc43)c2)cc1 ?
// result 0.075

// query Here is the next compound: CC(C)(c1cc(-c2cccc(-c3ccc(C4CC4C(=O)O)cc3)c2)c2ncccc2c1)S(C)(=O)=O (single isomer, unassigned; enantiomer A)
// result 1.4

// query Here is the next compound: O=C(NC1CC1)c1cn(-c2cccc(-c3ccc([C@H]4C[C@@H]4C(=O)O)cc3)c2)c2ncccc2c1=O
// result 0.23

----------
Documented IC50 across a set of molecules
- target of assay: Phosphodiesterase 4 (Homo sapiens, UniProt P27815+Q08499+Q07343+Q08493)
- method notes: Inhibition of PDE4 activity in human whole blood assessed as inhibition of LPS-induced TNF-alpha release
Please reply with the bare figure in nM and do not write the unit itself.

// query Which IC50 value is on record for O=C(NC1CCC1)c1cn(-c2cccc(-c3ccc(C4CC4C(=O)O)cc3)c2)c2ncccc2c1=O (racemic) ?
// result 220

// query Here is the next molecule: O=C(NCC1CC1)c1cn(-c2cccc(-c3ccc(C4CC4C(=O)O)cc3)c2)c2ncccc2c1=O (racemic)
// result 200

// query Here is the next molecule: O=C(NC1CC1)c1cn(-c2cccc(-c3ccc([C@@H]4C[C@H]4C(=O)O)c(F)c3)c2)c2ncccc2c1=O
// result 550

// query Here is the next molecule: O=C(NC1CC1)c1cn(-c2cccc(-c3cccc(C4CC4C(=O)O)c3)c2)c2ncccc2c1=O (racemic)
// result 110

// query Here is the next molecule: O=C(NC1CC1)c1cn(-c2cccc(-c3ccc([C@H]4C[C@@H]4C(=O)O)c(F)c3)c2)c2ncccc2c1=O
// result 150

// query Here is the next molecule: O=C(NC1(O)CC1)c1cn(-c2cccc(-c3ccc(C4CC4C(=O)O)cc3)c2)c2ncccc2c1=O (racemic)
// result 6400
